Measured GI50 values are reported for all entries that follow.
# Test system: Kuramochi cells
# assayDetails: Incucyte cell proliferation assay, Kuramochi cells labeled with mApple-H2B
# Format: cell-based
# conditionLabel: 72 h, class symbols A-D
observedProperty: GI50

compound="CNC(=O)C(NC(=O)C1CN(C(=O)Cc2c[nH]c3cc(Cl)ccc23)CC2CN(C(=O)c3ccc(OC(C)C)c(OC)c3)CC21)[C@H](C)OCc1ccccc1 (single isomer, unassigned) [I-145]" obsvalue="1 to 10 µM"
compound="COc1cc(C(=O)N2CC3CN(C(=O)Cc4c[nH]c5cc(Cl)ccc45)CC(C(=O)NCc4ccc(C)nn4)C3C2)ccc1OC(C)C (single isomer, unassigned) [I-261]" obsvalue="> 20 µM"
compound="CNC(=O)[C@@H](NC(=O)C1CN(C(=O)Cc2c[nH]c3cc(Cl)ccc23)CC2CN(C(=O)c3ccc(OC(C)C)c(OC)c3)CC21)[C@H](C)OCc1ccccc1 (single isomer, unassigned) [I-146]" obsvalue="10 to 20 µM"
compound="CNC(=O)[C@@H](NC(=O)C1CN(C(=O)Cc2c[nH]c3cc(Cl)ccc23)CC2CN(C(=O)c3ccc(OC(C)C)c(OC)c3)CC21)[C@H](C)OCc1ccccc1 (stereo partly shown) [I-106]" obsvalue="1 to 10 µM"

====

# systemName: CDK2/Cyclin E1(14-475) (Homo sapiens, UniProt P24941)
# assayDetails: Caliper LabChip EZ Reader mobility shift assay, inhibition of CDK2/Cyclin E1 activity
# Format: biochemical
# conditionLabel: class symbols A-D
pIC50: −log10 of the molar value.
observedProperty: pIC50

compound="CNC(=O)[C@H](CCCc1ccccc1)NC(=O)C1CN(C(=O)Cc2c[nH]c3cc(Cl)ccc23)CC2CN(C(=O)c3ccc4cccn4c3)CC21 (stereo partly drawn)" systemname="CDK2/Cyclin E1(14-475) (Homo sapiens, UniProt P24941)" obsvalue="< 5.00"
compound="CNC(=O)[C@@H](CCCC1CCC(O)CC1)NC(=O)C1CN(C(=O)Cc2c[nH]c3cc(Cl)ccc23)CC2CN(C(=O)c3ccc(OC(C)C)c(OC)c3)CC21 (stereo partly drawn)" systemname="CDK2/Cyclin E1(14-475) (Homo sapiens, UniProt P24941)" obsvalue="< 5.00"
compound="CNC(=O)[C@H](CCCc1ccccc1)NC(=O)C1CN(C(=O)c2ccc(OC)nn2)CC2CN(C(=O)c3ccc(OC(C)C)c(OC)c3)CC21 (stereo partly drawn)" systemname="CDK2/Cyclin E1(14-475) (Homo sapiens, UniProt P24941)" obsvalue="< 5.00"
compound="CNC(=O)[C@H](CCCc1ccccc1)NC(=O)C1CN(C(=O)c2sc(C)nc2C)CC2CN(C(=O)c3ccc(OC(C)C)c(OC)c3)CC21 (stereo partly drawn)" systemname="CDK2/Cyclin E1(14-475) (Homo sapiens, UniProt P24941)" obsvalue="< 5.00"
compound="CNC(=O)[C@H](CCCc1ccccc1)NC(=O)C1CN(C(=O)Cc2c[nH]c3cc(Cl)ccc23)CC2CN(C(=O)c3cc(C)[nH]n3)CC21 (stereo partly drawn)" systemname="CDK2/Cyclin E1(14-475) (Homo sapiens, UniProt P24941)" obsvalue="5.30 to 6.30"
compound="CNC(=O)[C@H](CCCc1ccccc1)NC(=O)C1CN(C(=O)Cc2c[nH]c3cc(Cl)ccc23)CC2CN(C(=O)c3cccc(CO)n3)CC21 (stereo partly drawn)" systemname="CDK2/Cyclin E1(14-475) (Homo sapiens, UniProt P24941)" obsvalue="< 5.00"
